assay: Quantitative High-Throughput drug screen in 47 multiple myeloma cell lines against the NCATS MIPE library collection: XG6_PLB cell viability assay (AID 1919865); conditions: XG6 myeloma viability, CellTiter-Glo ATP luminescence, 48 h; series mostly up to 45.8 µM; further: nearly all actives have a fitted effect of over 40% in size; further: potency means the concentration at half of the fitted maximal effect
Records with an inconclusive call do not appear. The source made the active and inactive calls. The call rests on the fitted dose curve; in most records, active means well fitted cell-killing curve with a large enough effect; inconclusive means small, poorly fitted or top-dose-only effect, or effect the other way; inactive means no such curve, though single readings can be large or run the other way.
measurement_type: Potency

In the examples that follow, each entry is paired with its recorded Potency.
• CNC(=O)c1c(F)cccc1Nc1nc(Nc2cc3c(cc2OC)CCN3C(=O)CN(C)C)nc2[nH]ccc12 = 2350 nM (active)
• O=C(C=Cc1c(C(=O)O)[nH]c2cc(Cl)cc(Cl)c12)Nc1ccccc1 = inactive
• CN(C1CCc2c(c3ccccc3n2CC(=O)O)C1)S(=O)(=O)c1ccc(F)cc1 (stereo not drawn) = 1870 nM (active)
• COC(=O)[C@]12CCC(C)(C)C[C@@H]1[C@@H]1C(=O)C=C3[C@@]4(C)C=C(C#N)C(=O)C(C)(C)[C@@H]4CC[C@@]3(C)[C@]1(C)CC2 = 372 nM (active)
• CN(C)Cc1c(C(=O)NCCOc2ccc(C(=O)NO)cc2)oc2ccccc12 = 2960 nM (active)

Let us examine a further case.
# compound CC=C1NC(=O)[C@H]2CSSCCC=C[C@H](CC(=O)N[C@H](C(C)C)C(=O)N2)OC(=O)[C@H](C(C)C)NC1=O ; its Potency = 23.5 nM (active)

###

test: qHTS drug screen for cell cycle checkpoint inhibitors in PARPi-resistant BRCA-mutant ovarian cancer cell lines. (AID 1963452); conditions: PEO1/OlaR viability, CellTiter-Glo luminescence, 96 h; measured here: PEO4 Z-AUC; stronger effect = lower value
measurement_type: Z-AUC
Give only the figure.

In the examples that follow, each entry is paired with its recorded Z-AUC.
• CC(C)(C)c1cc(NC(=O)Nc2ccc(-c3cn4c(n3)sc3cc(OCCN5CCOCC5)ccc34)cc2)no1 = 0.987
• CN(c1ncccc1CNc1nc(Nc2ccc3c(c2)CC(=O)N3)ncc1C(F)(F)F)S(C)(=O)=O = -0.665
• CCCCOc1c(C(=O)c2c(F)cc(C)cc2F)cnc2n[nH]cc12 = -0.136
• CN1CC[C@@H](c2c(O)cc(O)c3c(=O)cc(-c4ccccc4Cl)oc23)[C@@H](O)C1 = -1.16

Let us examine a further case.
# compound CN1CCN(c2cc(C(=O)Nc3ccc4c(c3)-c3c(c(C(N)=O)nn3-c3ccc(F)cc3)CC4)c(Cl)cn2)CC1 ; its Z-AUC = -0.0103

###

experiment: qHTS of pediatric cancer cell lines to identify multiple opportunities for drug repurposing: Primary screen for U-2 OS cells (AID 1347096); details: U-2 OS viability, CellTiter-Glo luminescence, 48 h; series mostly up to 46 µM; further: nearly all actives have a fitted effect of over 50% in size
Inconclusive results are not listed. Active and inactive are the calls of the source. Calls come from the whole dose curve; as a rule, active = well fitted cell-killing curve with a large enough effect; inconclusive = small, poorly fitted or top-dose-only effect; inactive = flat fitted curve, though single readings scatter.
Just give me one of these, please: 1 (yes) (active), 0 (no) (inactive)

- Cc1nc2ccc(CN(C)c3ccc(C(=O)N[C@@H](CCC(=O)O)C(=O)O)s3)cc2c(=O)[nH]1: 0 (no)
- Nc1cccc(-c2cc3c(Oc4cccc(O)c4)ncnc3[nH]2)c1: 0 (no)
- Cc1[nH]c2ccccc2c1CCNCc1ccc(C=CC(=O)NO)cc1: 1 (yes)
- CC(C)(O)CCc1ccc(OCc2cc(-c3cccc(OC(F)F)c3)c3ncccc3c2)cc1: 0 (no)
- O=C(Nc1ncc(-c2cc(C(F)F)nn2-c2c(Cl)cccc2Cl)s1)C1CC1: 1 (yes)

Now look at this one.
IN: Assay outcome for O=C(C=Cc1cccc(S(=O)(=O)Nc2ccccc2)c1)NO : what was it?
OUT: 1 (yes)
